settings: octanol/water
This section presents molecules with their documented logD values.
endpointName: logD

molecule: CCOC(=O)C1=C(C)NC(C)=C(C(=O)OC)C1c1cccc([N+](=O)[O-])c1 (centres undefined) [NITRENDIPINE]
observedResult: 0.97
//
molecule: Nc1ccn([C@H]2CC[C@@H](CO)O2)c(=O)n1 (stereo in doubt; 1) [ZALCITABINE]
observedResult: 3.2
//
molecule: COc1ccc2c3c1O[C@H]1[C@@H](O)C=C[C@H]4[C@@H](C2)N(C)CC[C@@]341 [CODEINE]
observedResult: -0.28
//
molecule: O=C(O)CCCc1ccc(N(CCCl)CCCl)cc1 [CHLORAMBUCIL]
observedResult: 2.29
